This collection of values is drawn from ChEMBL document CHEMBL3301361.

Known logD of a selection of compounds
Assay: physchem
Settings: octan-1-ol/water, pH 7.4, LogD7.4

compound	logD
NC1CCc2cc(OC(=O)c3ccccc3)c(OC(=O)c3ccccc3)cc2C1 (stereo not given)	2.6
Oc1ncnc2onc(-c3ccc(F)cc3)c12	1.97
CC[C@H](NC(=O)c1c([S+](C)[O-])c(-c2ccccc2)nc2c(F)cccc12)c1ccccc1 (stereo not given in full)	2.84
OC[C@H](Nc1ncc(Cl)c(Nc2cc(C3CC3)n[nH]2)n1)c1ccc(F)cc1	3.75
Nc1n[nH]c2nnc(-c3ccccc3)c(-c3ccccc3)c12	2.6

###

Assay: in vitro
Conditions: Beagle, dog, plasma
Decision: fraction unbound at 5 h >= 0.2 yields Condition met, all other cases yield Condition not met.

substanceSmiles	assignedCategory
CN(C)CCC1CCN(c2cc(C(=O)NC[C@H]3CC[C@H](CNC(=O)OC(C)(C)C)CC3)c3ccccc3n2)CC1	Condition not met
CNC(=O)CCCN(C)C(=O)c1ccc2c(c1)c1c(n2C)CC[C@@H](C2CCOCC2)C1	Condition met
COc1cc2c(cc1-c1c(C)noc1C)ncc1[nH]c(=O)n([C@H](C)c3ccccn3)c12	Condition not met
O=c1cc(OCc2ccccc2)ccn1-c1ccc2c(cnn2CCN2CCCC2)c1	Condition not met
Cc1c(Cl)ccc(OC2CCN(C3CCN(C(=O)c4cccc(S(C)(=O)=O)c4)CC3)CC2)c1Cl	Condition not met
CCCSc1nc(N)c2ncn([C@@H]3O[C@H](CO)[C@@H](O)[C@H]3O)c2n1	Condition met
O=C(O)[C@H](Cc1ccc(F)cc1)N1CCC(CN2CCC(Oc3ccc(Cl)c(Cl)c3)CC2)CC1	Condition met
COc1cc(-n2cnc3cc(-c4ccc(Cl)cc4)sc3c2=O)ccc1OC[C@H](OP(=O)(O)O)C1CC1	Condition not met
CC(C)(C)S(=O)(=O)CCCN1CCN(CC(=O)NC23CC4CC(CC(C4)C2)C3)CC1	Condition met
COc1cc(-n2cnc3cc(-c4ccc(Cl)cc4)sc3c2=O)ccc1OC[C@H](O)C1CC1	Condition not met
Cc1cn([C@H]2CCCN([C@H](C)c3ccc(C(=O)O)c(Oc4cccc(Cl)c4)c3)C2)c(=O)[nH]c1=O	Condition not met
C[C@H](Nc1ncc(F)c(Nc2cc(C3CC3)[nH]n2)n1)c1ccc(F)cn1	Condition not met
Cc1cc(Nc2nc(O[C@@H](C)c3ncc(F)cn3)ncc2Cl)[nH]n1	Condition met
C[C@H](CO)Nc1nc(SCc2ccco2)nc2[nH]c(=O)sc12	Condition not met
CN1CCN(C2=Nc3cc(Cl)ccc3Nc3ccccc32)CC1	Condition not met
O=C(NCC12CC3CC(CC(C3)C1)C2)c1cc(N2CCNCC2)ncc1Cl	Condition not met
CNC(=C[N+](=O)[O-])NCCSCc1ccc(CN(C)C)o1	Condition met
Cc1ccc(NC(=O)c2cccc(C(C)(C)C#N)c2)cc1Nc1ccc2ncn(C)c(=O)c2c1	Condition not met
O=C(NCC12CC3CC(CC(C3)C1)C2)c1cc(CN2C[C@@H]3C[C@H]2CN3)ccc1Cl	Condition not met

###

Experiment: physchem
Details: octan-1-ol/water, pH 7.4
Range-based classes on measured logD: 0: < 2; 1: ≥ 2 and < 3; 2: ≥ 3

compound	assignedCategory
COc1ccccc1CN1C(=O)c2ccccc2C1C(=O)NC1CCC(C)CC1 (stereo not drawn)	2
Cc1ccc(C(=O)N(CCCN)[C@H](c2nc3cc(Cl)ccc3c(=O)n2Cc2ccccc2)C(C)C)cc1	1
O=C1Nc2ccccc2B(O)N1c1ccccc1	0
CC(=O)Nc1ccc(S(=O)(=O)Nc2ccc(Cc3ccncc3)cc2)cc1	1
Oc1ccnc2ccccc12	0
O=C(N[C@H]1CN2CCC1CC2)c1ccc(Cl)cc1	0
Nc1nc2ccc(Cl)cc2c2nc(-c3ccco3)nn12	2
CCC1(c2ccccc2)C(=O)NC(=O)NC1=O	0
O=C1CC(c2ccc(O)cc2)Oc2cc(O)cc(O)c21 (stereo not drawn)	1
CCC1(c2cccc(O)c2)CCCCN(C)C1 (stereo not drawn)	0
N#Cc1cccc(-c2ccc(C3(CNC(=O)Nc4cc(Cl)cc(Cl)c4)CCN(CC4CC4)CC3)cc2)c1	2
O=C(Nc1cccc([C@@H](c2ccc(C(=O)N3CCC3)cc2)N2CCN(Cc3ccc(F)cc3)CC2)c1)C1CC1	2
CCOC(=O)Nc1cccc([C@@H](c2ccc(C(=O)N(C)CC)cc2)N2CCN(Cc3c[nH]c(C)n3)CC2)c1	1
NC(=O)c1cccc(C[C@H]2C[C@H]3CC[C@@H](C2)N3Cc2ccccc2)c1	0
COc1ccccc1Cn1c(C)nc2ccccc21	2
CC(CC(=O)NCc1ccccc1)C1CCCO1 (stereo not drawn)	1
Nc1nccc(/C=C/c2ccc(Cl)cc2)n1	2
O=C(Nc1ccccc1F)N[C@H]1N=C(c2ccccc2)c2ccccc2NC1=O	2
CC(NC(C)(C)C)C(=O)c1cccc(Cl)c1 (stereo not drawn)	1
C1CCC(NC2CCCCC2)CC1	0
CN1C(=O)NC(=O)C(C)(C2=CCCCC2)C1=O (stereo not drawn) [HEXOBARBITAL]	0
Cc1ccc(-c2nnc(O)c3ccccc23)c(C)c1	2
Nc1nnc(Cc2ccc(Cl)cc2)s1	1
NC(=O)c1cccc(N[C@H]2C[C@H]3CC[C@@H](C2)N3Cc2ccccc2)c1	0
CCOC(=O)C1(c2cccc(O)c2)CCCN(CC2CC2)C1 (stereo not drawn)	0
O=C(N[C@@H]1CN2CCC1CC2)c1ccc(-c2ccccc2)s1	0
CCN(C)C(=O)c1ccc([C@H](c2cccc(NC(=O)C3CCC3)c2)N2CCN(Cc3cccnc3)CC2)cc1	2
CCCSc1ccc2nc(NC(=O)OC)[nH]c2c1	2
CCN(CC)C(=O)c1ccc(C2=CC3(CCNCC3)Oc3ccccc32)c(O)c1 [ADL-5747 FREE BASE]	0
CNC1=Nc2ncccc2C(c2ccco2)=NC1c1cccs1 (stereo not drawn)	0
Nc1ccc(C2(c3ccc(N)cc3)CCCCC2)cc1	2
COc1cccc2sc(NC(=O)c3ccccc3)nc12	2
COc1cc(F)ccc1-c1cncc(C2CCCN2)c1 (stereo not drawn)	0
Cc1c(O[C@H]2C[C@H]3CC[C@@H](C2)N3Cc2ccccc2)cccc1C(N)=O	0
O=C(O)c1cc2ccccc2n1Cc1ccccc1	0
NC(=O)c1cccc(S[C@H]2C[C@H]3CC[C@@H](C2)N3Cc2ccccc2)c1	1
NC(Cc1ccccc1)c1ccccc1 (stereo not drawn)	0
O=C(NC1CCCS(=O)(=O)C1)c1ccc(Oc2ccc(C#C[C@]3(O)CN4CCC3CC4)cc2)cc1 (stereo partly drawn)	0
